System: SW-620 colon
assay: NCI tumour cell line growth inhibition, 48 h
experimentalReadout: TGI

| molSmiles | targetOfAssay | experimentalReadout | result |
| --- | --- | --- | --- |
| COc1cccc2cc(C)c(C(=O)c3ccccc3)nc12 | SW-620 colon | TGI | > 100 µM |
| Nn1c(-c2ccccc2)nc2ccc(Br)cc2c1=O | SW-620 colon | TGI | > 100 µM |

// switching to the query molecule
*Q* Query: TGI; subject: `CNC(P(=O)([O-])[O-])P(=O)([O-])[O-].N.N.[Pt+2]`
*A* > 100 µM

====

Test system: COLO 205 colon
assay: NCI tumour cell line growth inhibition, 48 h
experimentalReadout: TGI

| compound | result |
| --- | --- |
| N/N=C(\C(=O)Nc1c(Cl)cc([N+](=O)[O-])cc1Cl)C(c1cnc2ccc([N+](=O)[O-])cc2n1)[N+](=O)[O-] (stereo not drawn) | > 100 µM |
| CC(=O)NCCCCNCCCNC(C)=O | > 100 µM |

// switching to the query compound
*Q* Query: TGI; subject: `O=C(NNc1nc(Cl)nc(N2CCN(C(c3ccccc3)c3ccccc3)CC2)n1)c1ccccc1`
*A* 4.64 µM

====

Tested on: HT29 colon
assay: NCI tumour cell line growth inhibition, 48 h
experimentalReadout: TGI

| compound | targetOfAssay | result |
| --- | --- | --- |
| O=C1C(=O)N(C(=O)c2ccc(Cl)c(Cl)c2)c2ccccc21 | HT29 colon | > 100 µM |
| CCNC(=O)Nc1cccc(C)n1 | HT29 colon | > 100 µM |

// switching to the query compound
*Q* Query: TGI; subject: CC(=O)C1CC(C)=CCC12C(=O)Nc1ccccc12 (stereo not drawn)
*A* > 100 µM

====

Test system: ACHN renal
assay: NCI tumour cell line growth inhibition, 48 h
Where a SMILES comes first, the peptide text is derived from it. [ ]: non-standard residue; d: D form. The star is where a group is joined. Phe(4-NO2) = N[CH](Cc1ccc([N+](=O)[O-])cc1)C(=O)O; Boc = CC(C)(C)OC(=O)*; OBn = c1ccc(CO*)cc1
Task for the reader: assign each of the following compounds its reported TGI.

Completed entries (count: 10):
| compound | result |
| --- | --- |
| CC(=O)NCCCCNCCCNC(C)=O | > 100 µM |
| Cc1c(-c2c(C)c3ccccc3n2S(=O)(=O)c2ccccc2)n(S(=O)(=O)c2ccccc2)c2ccccc12 | > 100 µM |
| CCCCOC(=O)CNC(=O)OCCCCC#CC#CCCCCOC(=O)NCC(=O)OCCCC | > 100 µM |
| O=[N+]([O-])C1C(c2ccccc2)C12c1ccccc1-c1ccccc12 (stereo not given) | 19.1 µM |
| CC(=O)OC(Cc1cc(C=C(C(F)(F)F)C(F)(F)F)cc(C)n1)(C(F)(F)F)C(F)(F)F | 2.84 µM |
| COc1cccc(C2CC(C)(N3CCCC3)Oc3cc4c(cc32)OCO4)c1O (stereo not given) | > 100 µM |
| Cc1cc(C)nc(NS(=O)(=O)c2ccc(Nc3c4ccccc4nc4c(C(=O)Nc5ccc(S(=O)(=O)N=C(N)N)cc5)ccc(Cl)c34)cc2)n1 | > 100 µM |
| C=CC(=O)N1C/C(=C\c2ccc(N(C)C)cc2)C(=O)/C(=C/c2ccc(N(C)C)cc2)C1 | > 100 µM |
| CCOc1cc2ncc(C#N)c(Nc3ccc(OCc4cccc(F)c4)c(Cl)c3)c2cc1NC(=O)CC1CCSS1 (stereo not given) | > 25 µM |
| Cc1nc2c(nc1C)C(=O)c1cc(O)ccc1C2=O | > 100 µM |

Required: TGI, one value per compound below.
1. Cc1ccc2[nH]cc(-c3nc(-c4c[nH]c5ncccc45)cs3)c2c1
2. CC(C)Oc1c(-c2c(OC(C)C)c(=O)c2=O)c(=O)c1=O
3. COc1ccc2nc3cc(Cl)ccc3c(NCCCCCC(=O)NC(COc3cnc4c(ccc5cccnc54)c3)COc3cnc4c(ccc5cccnc54)c3)c2c1
4. COc1ccc(N=C2CSc3nnc(-c4cc(F)c(Cl)cc4Cl)n3N2)cc1
5. Cn1ccnc1Sc1ccc(/C=N/NC(=O)c2ccccc2O)cc1[N+](=O)[O-]
6. COc1ccc2nc(N/N=C(\C)c3ccccn3)cc(C)c2c1
7. Nc1ccn(CCOC(=O)c2ccccc2)c(=O)n1

*A*
1: > 100 µM; 2: > 100 µM; 3: > 100 µM; 4: 11.5 µM; 5: > 100 µM; 6: 1.21 µM; 7: > 100 µM

Required: TGI, one value per compound below.
1. COC(=O)CCC(NC(=O)OC(C)(C)C)C(=O)NC(Cc1ccc([N+](=O)[O-])cc1)C(=O)NCC(=O)OCc1ccccc1 (stereo not given) (Boc-Glu(OMe)-[Phe(4-NO2)]-Gly-OBn; configuration not given here)
2. CCC1C(=O)C[C@H]2[C@@H]3C(O)CC4=CC(=O)CC[C@]4(C)[C@H]3CC[C@]12C (stereo not given in full)
3. O=C(O)c1c(-c2cccc3ccccc23)sc(-c2cccc3ccccc23)c1C(=O)O
4. O=C1CC(O)C=C1Nc1ccc(Cl)cc1 (stereo not given)
5. CCOC(=O)[C@@]1(C)C=C2O[C@@H]3OC4(CCCCC4)O[C@@H]3C2=C2C(O)=CC=C(O)[C@]21C(=O)OC
6. COC(=O)Cc1ccc2c(c1)Sc1ccc(CC(=O)OC)cc1N2C

*A*
["> 100 µM", "> 50 µM", "> 100 µM", "> 100 µM", "> 68 µM", "> 100 µM"]

Required: TGI, one value per compound below.
1. Nc1nc(SCc2ccccn2)c2ncn(C3CCCC3)c2n1
2. COc1cc(CCc2ccc(OCCN(C)C)cc2)cc(OC)c1OC
3. c1ccc(CNc2c3c(nc4ccccc24)CCC3)cc1
4. N=C(N)SCCON1C(=O)c2ccccc2C1=O
5. CC[C@H](C)N(CCN)C(=O)c1cc2ccccc2c(-c2ccccc2Cl)n1
6. COc1ccc2cc(C(=O)/C=C/c3cc(OC)c(OC)c(OC)c3)ccc2c1
7. COc1ccc(N(C(=O)Nc2ccc(Cl)c(Cl)c2)c2ccccc2)cc1

*A*
["> 100 µM", "> 100 µM", "40.9 µM", "> 100 µM", "28.1 µM", "18.2 µM", "> 10 µM"]

Required: TGI, one value per compound below.
1. Cn1ccnc1S/C(=C\C=C(C#N)C#N)c1ccc(Cl)cc1
2. COc1cc(OC)c2c(O)cc(CC(C)O)cc2c1 (stereo not given)
3. Cc1ccc(OCC(=O)N2N=C(c3ccccc3)CC2(O)c2ccccc2)cc1 (stereo not given)
4. COc1cc(-c2nc3cc(F)ccc3s2)ccc1O
5. CC(C)(CO)CNc1cc(=O)[nH]c(N)n1

*A*
1. 2.09 µM
2. > 100 µM
3. > 100 µM
4. > 100 µM
5. > 100 µM
